- test_protocol: Intrinsic clearance in human hepatocytes measured per million of cells
- Format: ADME, cell-based, Hepatocyte
- condition_parameters: read-out: CLH
assay_endpoint: hepatocyte CLint
Kindly format the answer as number then unit.

Prompt line: Name the reported hepatocyte CLint value associated with the compound C#Cc1ccnc(C#Cc2ccc3ncn(-c4ccnc(N)n4)c3c2)n1
Response line: 382 µL/min/1e6 cells

---

- Tested on: Z-138
- test_protocol: Antiproliferative activity against NIK-activated human Z138 cells assessed as inhibition of cell growth incubated for 72 hrs by XTT assay
- Format: functional
Rule: measured GI50 below 600 nM gets condition met; anything equal to or greater than 600 nM gets condition not met.

Worked set:
{"test_smiles": "C=Cc1ccnc(C#Cc2ccc3ncn(-c4ccnc(N)n4)c3c2)c1", "answer_label": "condition met"}
{"test_smiles": "COc1cc(C(N)=O)nc(-c2cccc(C#C[C@]3(O)CCN(C)C3=O)c2)c1", "answer_label": "condition not met"}
{"test_smiles": "C=Cc1ccnc(C#Cc2ccc3ncn(-c4ccnc(N)n4)c3c2)n1", "answer_label": "condition not met"}
{"test_smiles": "C#Cc1ccnc(C#Cc2ccc3ncn(-c4ccnc(N)n4)c3c2)c1", "answer_label": "condition not met"}

Moving on to another compound below.
Prompt line: Lab note: GI50 threshold 600 nM. Does this compound come in strictly under it? C#Cc1ccnc(C#Cc2ccc3ncn(-c4ccnc(N)n4)c3c2)n1
Response line: condition not met
